Target: S-adenosylmethionine decarboxylase proenzyme (Rattus norvegicus)
Sequence (P17708 whole entry): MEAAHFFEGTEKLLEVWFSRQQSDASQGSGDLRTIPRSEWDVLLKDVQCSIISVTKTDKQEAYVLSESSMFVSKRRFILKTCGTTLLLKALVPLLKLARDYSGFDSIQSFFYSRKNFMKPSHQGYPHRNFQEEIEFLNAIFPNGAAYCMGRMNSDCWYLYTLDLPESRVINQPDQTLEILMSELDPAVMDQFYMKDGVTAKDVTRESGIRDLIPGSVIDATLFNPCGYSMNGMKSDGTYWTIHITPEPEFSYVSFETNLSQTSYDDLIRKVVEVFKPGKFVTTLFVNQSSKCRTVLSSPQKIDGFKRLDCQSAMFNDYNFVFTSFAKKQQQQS
pIC50: −log10 of the molar value.
Consider the following partition of reported pIC50 into named classes: lower segment = under 6, middle segment = from 6 up to 7, upper segment = 7 and over

structure_smiles_string: N=C(N)N/N=C/c1ccnc(C(=N)N)n1
assigned_category: middle segment
--
structure_smiles_string: N=C(N)c1cccc(-c2cccc(C(=N)N)c2)c1
assigned_category: middle segment
--
structure_smiles_string: N=C(N)N/N=C/c1cccc(C(=N)N)c1
assigned_category: upper segment

Q: State the class of the compound shown: N=C(N)c1ccnc(-c2cc(C(=N)N)ccn2)c1
Ans: lower segment

----------
For reference, pIC50 measured on Diamine oxidase [copper-containing] (Rattus norvegicus):
The scale used: pIC50 is minus the common logarithm of the concentration in molar units.

Use these answered entries as a reference point.
compound: N=C(N)N/N=C/c1nccc(C(=N)N)n1
pIC50: 5.47
//
compound: N=C(N)c1cccc(/C=N/N=C(\N)N/N=C/c2cccc(C(=N)N)c2)c1
pIC50: 6.08
//
compound: N=C(N)N/N=C/c1ccnc(C(=N)N)n1
pIC50: 5.09
//
compound: N=C(N)N/N=C/c1cccc(C(=N)N)n1
pIC50: 6.06
//
compound: N=C(N)c1cccc(-c2cccc(C(=N)N)n2)n1
pIC50: 3.62

Q: Which pIC50 is listed for N=C(N)N/N=C/c1cccc(C(=N)N)c1 ?
Ans: 5.25

Q: Which pIC50 is listed for N=C(NN)N/N=C/c1cccc(C(=N)N)n1 ?
Ans: 5.78

Q: Which pIC50 is listed for CCCCNC(=N)c1cccc(/C=N/N=C(N)N)c1 ?
Ans: 5.30

Q: Which pIC50 is listed for N=C(NO)N/N=C/c1cccc(C(=N)N)c1 ?
Ans: 4.70

----------
For reference, log10 IC50 measured on S-adenosylmethionine decarboxylase proenzyme (Rattus norvegicus):
log10 IC50, nM

structure_smiles_string: N=C(N/N=C/c1cccc(C(=N)N)n1)N/N=C/c1cccc(C(=N)N)n1
log10 IC50: 2.08
//
structure_smiles_string: CCCCNC(=N)N/N=C/c1cccc(C(=N)N)c1
log10 IC50: 2.20
//
structure_smiles_string: N=C(NN)N/N=C/c1cccc(C(=N)N)n1
log10 IC50: 2.83

Q: Which log10 IC50 is listed for C/C(=N\N=C(N)N)c1cccc(C(=N)N)c1 ?
Ans: 1.82

Q: Which log10 IC50 is listed for N=C(NO)N/N=C/c1cccc(C(=N)N)c1 ?
Ans: 1.96

Q: Which log10 IC50 is listed for CC/C(=N\N=C(N)N)c1cccc(C(=N)N)c1 ?
Ans: 1.94

----------
Target: Diamine oxidase [copper-containing] (Rattus norvegicus, UniProt P36633)
Sequence (P36633 whole entry): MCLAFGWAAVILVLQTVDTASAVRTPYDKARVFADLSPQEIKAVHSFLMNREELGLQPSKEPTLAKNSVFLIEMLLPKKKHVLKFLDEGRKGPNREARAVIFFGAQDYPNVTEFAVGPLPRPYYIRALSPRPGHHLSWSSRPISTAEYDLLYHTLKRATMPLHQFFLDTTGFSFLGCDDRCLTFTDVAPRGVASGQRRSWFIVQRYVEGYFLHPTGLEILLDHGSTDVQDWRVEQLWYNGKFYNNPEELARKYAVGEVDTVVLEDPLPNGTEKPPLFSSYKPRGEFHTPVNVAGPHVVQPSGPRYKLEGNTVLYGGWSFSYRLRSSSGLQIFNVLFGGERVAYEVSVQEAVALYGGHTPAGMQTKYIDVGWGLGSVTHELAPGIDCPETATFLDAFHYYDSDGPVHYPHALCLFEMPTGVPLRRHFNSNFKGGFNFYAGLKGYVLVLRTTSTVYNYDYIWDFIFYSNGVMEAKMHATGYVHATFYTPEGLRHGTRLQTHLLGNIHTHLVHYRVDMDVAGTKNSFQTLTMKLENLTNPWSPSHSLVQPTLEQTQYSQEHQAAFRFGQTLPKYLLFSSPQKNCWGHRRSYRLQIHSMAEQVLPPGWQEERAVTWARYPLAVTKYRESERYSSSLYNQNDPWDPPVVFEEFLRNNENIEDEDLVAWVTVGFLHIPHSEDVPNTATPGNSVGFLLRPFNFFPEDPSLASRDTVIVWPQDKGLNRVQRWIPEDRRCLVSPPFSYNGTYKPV
endpoint_label: IC50

Use these answered entries as a reference point.
molecule: N=C(N)N/N=C/c1ccnc(C(=N)N)c1
endpoint_label: IC50
value_reported: 3200 nM
//
molecule: CC(/C=N/NC(=N)N)=N\NC(=N)N [MITOGUAZONE]
endpoint_label: IC50
value_reported: 1500 nM
//
molecule: N=C(N)N/N=C/c1cccc(C(N)=O)c1
endpoint_label: IC50
value_reported: > 100000 nM
//
molecule: CCCCNC(=N)N/N=C/c1cccc(C(=N)N)c1
endpoint_label: IC50
value_reported: 2800 nM

Shifting focus to the molecule that follows.
Q: Which IC50 is listed for N=C(N/N=C/c1cccc(C(=N)N)n1)N/N=C/c1cccc(C(=N)N)n1 ?
Ans: 760 nM
